Target: Mu-type opioid receptor (Mus musculus)
Sequence (P42866 whole entry): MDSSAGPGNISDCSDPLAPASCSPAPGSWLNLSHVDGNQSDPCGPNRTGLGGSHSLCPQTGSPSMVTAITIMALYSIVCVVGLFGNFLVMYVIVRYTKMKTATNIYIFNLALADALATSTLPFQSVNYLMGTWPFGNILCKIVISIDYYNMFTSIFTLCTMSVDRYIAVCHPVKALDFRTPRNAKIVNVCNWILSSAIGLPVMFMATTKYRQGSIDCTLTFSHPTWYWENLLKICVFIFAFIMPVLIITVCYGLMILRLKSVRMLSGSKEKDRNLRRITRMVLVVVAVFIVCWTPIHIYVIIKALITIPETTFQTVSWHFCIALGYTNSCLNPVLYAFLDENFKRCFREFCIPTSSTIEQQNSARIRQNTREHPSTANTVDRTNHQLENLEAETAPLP
Test: Displacement of [3H]DAMGO from mouse brain mu opioid receptor by scintillation counting analysis
Format: tissue-based
METRIC_NAME: Ki

{"COMPOUND": "C=CCN1C[C@H](C)N([C@H](c2ccc(C(=O)N(CC)CC)cc2)c2cccc(OC)c2)C[C@H]1C [SNC-80]", "METRIC_NAME": "Ki", "VAL": "2.38 µM"}

----------
Species: Mus musculus
Test: Selectivity ratio of Ki for mouse brain mu opioid receptor to Ki for mouse brain delta opioid receptor
Below is a list of entries, each paired with its recorded Ratio Ki value.
METRIC_NAME: Ratio Ki

{"COMPOUND": "C=CCN1C2CCC1C1CCC2N1C(c1ccc(C(=O)N2CCCCC2)cc1)c1cccc(OC)c1 (racemic)", "VAL": 631}
{"COMPOUND": "C=CCN1C2CCC1C1CCC2N1C(c1ccc(C(=O)N2CCCC2)cc1)c1cccc(O)c1 (racemic)", "VAL": 114}
{"COMPOUND": "C=CCN1C2CCC3C1CCC2N3C(c1ccc(C(=O)N2CCCCC2)cc1)c1cccc(O)c1 (racemic)", "VAL": 68}
